# TEST_PROTOCOL: Plasma pharmacokinetics of OSI-930
# Type: in vivo, human
# CONDITION: human, plasma, oral, 400 mg, Cmin, 400 mg twice a day (n = 6); day 22, steady state
OBSERVATION_TYPE: concentration at 22 day (ng/mL)
Return type: number; implicit unit ng/mL.

**Q:** Query: concentration at 22 day; subject: O=C(Nc1ccc(OC(F)(F)F)cc1)c1sccc1NCc1ccnc2ccccc12 [OSI-930]
**A:** 423

###

# TEST_PROTOCOL: Plasma pharmacokinetics of OSI-930
# Format: in vivo, human
# CONDITION: human, plasma, oral, 100 mg, Cmin, 100 mg once a day (n = 1); day 22, steady state
OBSERVATION_TYPE: concentration at 22 day (ng/mL)
Return type: number; implicit unit ng/mL.

**Q:** Query: concentration at 22 day; subject: O=C(Nc1ccc(OC(F)(F)F)cc1)c1sccc1NCc1ccnc2ccccc12
**A:** 61.5
